molecular target: Human CD3εδ-Fc (human) (UniProt P04234); assay: Biacore SPR, monovalent KD, biotinylated human CD3εδ-Fc
Sequence (chain, as listed by the source mutant, chain 1 of 2): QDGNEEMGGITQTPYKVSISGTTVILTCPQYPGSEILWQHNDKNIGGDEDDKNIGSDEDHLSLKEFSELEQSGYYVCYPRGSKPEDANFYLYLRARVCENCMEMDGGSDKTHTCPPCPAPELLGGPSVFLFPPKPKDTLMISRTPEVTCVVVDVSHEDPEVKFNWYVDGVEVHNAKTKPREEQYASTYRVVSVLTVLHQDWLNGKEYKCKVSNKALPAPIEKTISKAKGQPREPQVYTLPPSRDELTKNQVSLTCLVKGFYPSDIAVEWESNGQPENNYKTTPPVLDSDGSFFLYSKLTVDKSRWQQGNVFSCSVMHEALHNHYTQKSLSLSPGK
Sequence (P04234 22-105, stated change not applied, chain 2 of 2): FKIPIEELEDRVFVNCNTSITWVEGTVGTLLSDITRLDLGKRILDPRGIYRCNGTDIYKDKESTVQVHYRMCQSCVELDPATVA
recorded.endpoint: Kd (nM)
Respond numerically; units are nM and should not be typed.

Recorded results for 3 binders are shown here.
{"binder": "ADI-46378 (antibody, V domains shown, also called Ab40) VH: QVQLVQSGAEVKKPGASVKVSCKASGFNIKDYYMHWVRQAPGQRLEWIGWIDLENANTVYDAKFQGRVTITRDTSASAAYMELSSLRSEDTAVYYCARDAYGRYFYDVWGQGTLVTVSS VL: DIVMTQSPDSLAVSLGERATINCKSSQSLLNARTRKNYLAWYQQKPGRPPKLLIYWASTRESGVPDRFSGSGSGTDFTLTISSLQAEDVAVYYCVQSYFRRTFGGGTKVEIK", "recorded.endpoint": "Kd", "recorded.value": 0.12}
{"binder": "ADI-45975 (antibody, V domains shown, also called Ab11) VH: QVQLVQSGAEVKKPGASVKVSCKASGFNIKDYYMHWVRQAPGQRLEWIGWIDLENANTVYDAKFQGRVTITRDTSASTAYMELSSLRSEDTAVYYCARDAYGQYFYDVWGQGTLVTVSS VL: DIVMTQSPDSLAVSLGERATINCKSSQSLLNARTRKNYLAWYQQKPGQPPKLLIYWASTRESGVPDRFSGSGSGTDFTLTISSLQAEDVAVYYCKQSYFRRTFGGGTKVEIK", "recorded.endpoint": "Kd", "recorded.value": 0.21}
{"binder": "ADI-42594 (antibody, V domains shown, also called Ab1) VH: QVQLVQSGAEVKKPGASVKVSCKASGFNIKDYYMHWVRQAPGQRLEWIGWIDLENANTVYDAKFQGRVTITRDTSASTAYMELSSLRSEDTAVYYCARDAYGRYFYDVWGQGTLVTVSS VL: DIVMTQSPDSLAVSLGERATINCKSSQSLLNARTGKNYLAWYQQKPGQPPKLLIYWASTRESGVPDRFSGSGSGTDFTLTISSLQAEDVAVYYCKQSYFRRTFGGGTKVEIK", "recorded.endpoint": "Kd", "recorded.value": 0.47}

**Q:** Given the entry ADI-46366 (antibody, V domains shown, also called Ab50) VH: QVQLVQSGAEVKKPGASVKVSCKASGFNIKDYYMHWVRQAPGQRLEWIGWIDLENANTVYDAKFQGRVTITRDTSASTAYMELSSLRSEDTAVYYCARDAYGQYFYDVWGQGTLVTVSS VL: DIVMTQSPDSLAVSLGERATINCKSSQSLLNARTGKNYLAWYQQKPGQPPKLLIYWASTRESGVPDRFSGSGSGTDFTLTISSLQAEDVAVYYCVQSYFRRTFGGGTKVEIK , report its measured Kd.
**A:** 0.23

Data origin, for the record: patent US20260209352A1
